Wavelength (nm) mean values by entry
Experiment: Bioluminescence emission spectra
Assay type: physicochemical
Details: emission spectrum with native coelenterazine
Protocol: Serum stability measurements were done by mixing 0.5 μl dilute Luciferase with either 20 μl mouse serum or 50 μl rat serum (Equitech-Bio, Kerrville, Tex.) placing the sample in a 37° C. incubator, and removing aliquots for activity testing. […] Emission spectra at ambient temperature were measured using a Triax 320 (Horiba Jobin Yvon, Edison, N.J.), which incorporates an optical grating device with a liquid N2 cooled CCD detector.
Measure: Wavelength (nm) mean

Molecule	Measure	Value
C124A/K136R: RLuc mutant C124A/K136R (protein) MASKVYDPEQRKRMITGPQWWARCKQMNVLDSFINYYDSEKHAENAVIFLHGNAASSYLWRHVVPHIEPVARCIIPDLIGMGKSGKSGNGSYRLLDHYKYLTAWFELLNLPKKIIFVGHDWGAALAFHYSYEHQDRIKAIVHAESVVDVIESWDEWPDIEEDIALIKSEEGEKMVLENNFFVETMLPSKIMRKLEPEEFAAYLEPFKEKGEVRRPTLSWPREIPLVKGGKPDVVQIVRNYNAYLRASDDLPKMFIESDPGFFSNAIVEGAKKFPNTEFVKVKGLHFSQEDAPDEMGKYIKSFVERVLKNEQ	Wavelength (nm) mean	498
A54P/A55T/C124A: RLuc mutant A54P/A55T/C124A (protein) MASKVYDPEQRKRMITGPQWWARCKQMNVLDSFINYYDSEKHAENAVIFLHGNPTSSYLWRHVVPHIEPVARCIIPDLIGMGKSGKSGNGSYRLLDHYKYLTAWFELLNLPKKIIFVGHDWGAALAFHYSYEHQDKIKAIVHAESVVDVIESWDEWPDIEEDIALIKSEEGEKMVLENNFFVETMLPSKIMRKLEPEEFAAYLEPFKEKGEVRRPTLSWPREIPLVKGGKPDVVQIVRNYNAYLRASDDLPKMFIESDPGFFSNAIVEGAKKFPNTEFVKVKGLHFSQEDAPDEMGKYIKSFVERVLKNEQ	Wavelength (nm) mean	483
